Tested System: Aβ42 (Homo sapiens, UniProt P05067)
Sequence (P05067 672-713): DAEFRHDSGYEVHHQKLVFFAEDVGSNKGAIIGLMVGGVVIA
Protocol Details: Th-T (thioflavin-T) assay of Aβ42 aggregation
Assay type: biochemical
Test Settings: measurement M3; source data, Ab alone and No Ab as controls
Outcome: class 1 for Th-T assay plate reading, mean of three wells (Supplementary Fig. 47) of at least 0.3; class 0 for anything lower.

[in] hey, is Th-T assay plate reading, mean of three wells (Supplementary Fig. 47) for this one >= 0.3? C=C1CCC2C(C)(CC(=O)C=C(C)C)C(O)CCC2(C)C1Cc1c(OC)oc(CO)c(C)c1=O (stereo not shown)
[out] class 1

[in] hey, is Th-T assay plate reading, mean of three wells (Supplementary Fig. 47) for this one >= 0.3? C=C1CC[C@@H]2[C@](C)(CC[C@H]3O[C@H](C=C(C)C)C[C@@]23C)[C@@H]1Cc1c(OC)oc(CO)c(C(=O)OC)c1=O
[out] class 0

[in] hey, is Th-T assay plate reading, mean of three wells (Supplementary Fig. 47) for this one >= 0.3? CC(C)=CCC/C(C)=C/CC/C(C)=C/CC/C(C)=C/Cc1c(O)c(C)c(C)oc1=O
[out] class 1

[in] hey, is Th-T assay plate reading, mean of three wells (Supplementary Fig. 47) for this one >= 0.3? C=C1CC[C@H]2[C@]3(C)C[C@H](C=C(C)C)O[C@H]3CC[C@]2(C)[C@@H]1Cc1c(OC)oc(CO)c(C)c1=O
[out] class 0

[in] hey, is Th-T assay plate reading, mean of three wells (Supplementary Fig. 47) for this one >= 0.3? C=C1CCC2C(C)(CCC=C(C)C)C(=O)CCC2(C)C1Cc1c(O)c(C)c(C)oc1=O (stereo not shown)
[out] class 0

[in] hey, is Th-T assay plate reading, mean of three wells (Supplementary Fig. 47) for this one >= 0.3? C=C1CCC2C(C)(CCC=C(C)C)C(O)CCC2(C)C1Cc1c(O)c(C)c(C)oc1=O (stereo not shown) [Compound 4]
[out] class 1

[in] hey, is Th-T assay plate reading, mean of three wells (Supplementary Fig. 47) for this one >= 0.3? C=C1CCC2C(C)(CC(=O)C=C(C)C)C(O)CCC2(C)C1Cc1c(O)c(C)c(C)oc1=O (stereo not shown)
[out] class 1

----------
Tested System: Aβ42 (Homo sapiens)
Protocol Details: Th-T (thioflavin-T) assay of Aβ42 aggregation
Assay type: biochemical
Test Settings: compound at 50; reading M58 of time course
Outcome: true for Th-T fluorescence, mean of three wells of at least 1; false for anything lower.

[in] hey, is Th-T fluorescence, mean of three wells for this one >= 1? C=C1CCC2C(C)(CCC=C(C)C)C(O)CCC2(C)C1Cc1c(OC)oc(C)c(C(=O)OC)c1=O (centres unmarked) [Compound 14]
[out] true

[in] hey, is Th-T fluorescence, mean of three wells for this one >= 1? C=C1CCC2C(C)(CCC=C(C)C)C(O)CCC2(C)C1Cc1c(OC)oc(CO)c(C(=O)OC)c1=O (centres unmarked) [Compound 13]
[out] false

[in] hey, is Th-T fluorescence, mean of three wells for this one >= 1? C=C1CC[C@@H]2[C@](C)(CC[C@H]3O[C@H](C=C(C)C)C[C@@]23C)[C@@H]1Cc1c(OC)oc(CO)c(C(=O)OC)c1=O [Compound 21]
[out] false

[in] hey, is Th-T fluorescence, mean of three wells for this one >= 1? C=C1CC[C@@H]2[C@](C)(CC[C@H]3O[C@H](C=C(C)C)C[C@@]23C)[C@@H]1Cc1c(OC)oc(CO)c(C)c1=O [Compound 20]
[out] true

[in] hey, is Th-T fluorescence, mean of three wells for this one >= 1? C=C1CCC2C(C)(CCC=C(C)C)C(O)CCC2(C)C1Cc1c(OC)oc(CO)c(C)c1=O (centres unmarked) [Compound 12]
[out] true
